Values from patent US4698327A

Test system: Staphylococcus aureus V41
METHOD DESCRIPTION: MIC, standard agar-dilution assay
Assay type: cell-based
Listed below: MIC values for each entry.

CCCCCCCCCNC1(C)CC(OC2C(Oc3c4cc5cc3Oc3ccc(cc3Cl)C(O)C3NC(=O)C(NC(=O)C5NC(=O)C(CC(N)=O)NC(=O)C(NC(=O)C(CC(C)C)NC)C(O)c5ccc(c(Cl)c5)O4)c4ccc(O)c(c4)-c4c(O)cc(O)cc4C(C(=O)O)NC3=O)OC(CO)C(O)C2O)OC(C)C1O (stereo not drawn)
0.25 µg/mL

INPUT: What does the data say about its MIC? Entry: CNC(CC(C)C)C(=O)NC1C(=O)NC(CC(N)=O)C(=O)NC2C(=O)NC3C(=O)NC(C(=O)NC(C(=O)O)c4cc(O)cc(O)c4-c4cc3ccc4O)C(O)c3ccc(c(Cl)c3)Oc3cc2cc(c3OC2OC(CO)C(O)C(O)C2OC2CC(C)(NCc3ccc(Br)cc3)C(O)C(C)O2)Oc2ccc(cc2Cl)C1O (stereo not drawn)
OUTPUT: 0.5 µg/mL

INPUT: What does the data say about its MIC? Entry: CCCCCCCCCCNC1(C)CC(OC2C(Oc3c4cc5cc3Oc3ccc(cc3Cl)C(O)C(NC(=O)C(CC(C)C)[N+](C)(C)C)C(=O)NC(CC(N)=O)C(=O)NC5C(=O)NC3C(=O)NC(C(=O)NC(C(=O)[O-])c5cc(O)cc(O)c5-c5cc3ccc5O)C(O)c3ccc(c(Cl)c3)O4)OC(CO)C(O)C2O)OC(C)C1O (stereo not drawn) [Compound 124, N^van --(n-decyl)-M43A]
OUTPUT: 0.5 µg/mL
